- Tested on: Escherichia coli TOP10
- TEST_SUMMARY: shrunken log2 fold change of peptide-encoding DNA abundance (4.5 h post-induction vs induction); higher = less antimicrobial activity (less host growth inhibition)
- ASSAY_SETUP: time post-induction: 4.5 h; library: site-saturation at positions 5, 18, 19, 20
Items are presented alongside their recorded shrunken log2 fold change.

Record excerpt, results attached:
RRIRVRPPRLPRPRPRPKLEPRP : 0.09
RRIRERPPRLPRPRPRPWACPRP : 0.0618
RRIRIRPPRLPRPRPRPIIDPRP : -0.372
RRIRDRPPRLPRPRPRPFVQPRP : -0.194
RRIRKRPPRLPRPRPRPNAPPRP : 0.449

According to the records, this sequence `RRIRMRPPRLPRPRPRPMHTPRP` displays shrunken log2 fold change of 3.3

Lab book: shrunken log2 fold change of `RRIRYRPPRLPRPRPRPKNTPRP` noted as -0.579

Summary for this sequence, `RRIRLRPPRLPRPRPRPISPPRP` : shrunken log2 fold change is -0.333

// recorded shrunken log2 fold change for `RRIRSRPPRLPRPRPRPPGVPRP` : 0.293

Memo: `RRIRQRPPRLPRPRPRPIDGPRP` , reported shrunken log2 fold change: 0.0784

---

- System: Escherichia coli TOP10
- TEST_SUMMARY: shrunken log2 fold change of peptide-encoding DNA abundance (4.5 h post-induction vs induction); higher = less antimicrobial activity (less host growth inhibition)
- ASSAY_SETUP: time post-induction: 4.5 h; library: site-saturation at positions 5, 18, 19, 20
Records here are stratified by shrunken log2 fold change; strata: low-valued (below -0.3), mid-valued (-0.3 to below 0.02), high-valued (0.02 or more)

stdin: Please classify: `RRIRLRPPRLPRPRPRPKDCPRP`
stdout: low-valued

stdin: Form: Item = `RRIRDRPPRLPRPRPRPPMFPRP` ; Class = ?
stdout: high-valued

stdin: Class? Entry: `RRIRSRPPRLPRPRPRPMCVPRP`
stdout: mid-valued

stdin: Tag the class for `RRIRDRPPRLPRPRPRPPYIPRP`
stdout: low-valued

stdin: Record `RRIRYRPPRLPRPRPRPYWAPRP` — which class?
stdout: low-valued

stdin: Which shrunken log2 fold change category applies to `RRIRTRPPRLPRPRPRPYVDPRP` here?
stdout: high-valued

stdin: Could you tell me which band `RRIRWRPPRLPRPRPRPPHYPRP` belongs to?
stdout: high-valued

---

- Tested on: Escherichia coli TOP10;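 also: peptides expressed intracellularly from a pBAD plasmid library in pooled LB shake-flask culture, induced with 0.3% L-arabinose, DNA abundance read by NGS, three biological replicates, DESeq2 with apeglm shrinkage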
- TEST_SUMMARY: shrunken log2 fold change of peptide-encoding DNA abundance (4.5 h post-induction vs induction); higher = less antimicrobial activity (less host growth inhibition)
- ASSAY_SETUP: time post-induction: 4.5 h; library: site-saturation at positions 5, 18, 19, 20
This section presents sequences with their documented shrunken log2 fold change values.
In your answer, state the number alone without any accompanying words.

RRIRCRPPRLPRPRPRPYRDPRP : -0.16
RRIRPRPPRLPRPRPRPKNGPRP : 0.069
RRIRYRPPRLPRPRPRPQIPPRP : -0.17
RRIRIRPPRLPRPRPRPVWDPRP : -0.14
RRIRARPPRLPRPRPRPWNKPRP : -0.0945
RRIRKRPPRLPRPRPRPRKHPRP : 0.328
RRIRYRPPRLPRPRPRPLLVPRP : -0.692
RRIRNRPPRLPRPRPRPHAAPRP : 0.545
RRIRCRPPRLPRPRPRPFCVPRP : -0.248
RRIRLRPPRLPRPRPRPKFWPRP : 0.0752

Measured shrunken log2 fold change, `RRIRERPPRLPRPRPRPLGYPRP` : -0.39

Looking up `RRIRQRPPRLPRPRPRPISVPRP` , I see its shrunken log2 fold change listed as 0.136

The reported value for `RRIRIRPPRLPRPRPRPGLFPRP` in terms of shrunken log2 fold change is -0.0275

Please fill in: shrunken log2 fold change reported for `RRIRQRPPRLPRPRPRPVVIPRP` = -0.292

Reported shrunken log2 fold change of `RRIRFRPPRLPRPRPRPKPRPRP` : 0.886

get_value(item= `RRIRERPPRLPRPRPRPGQGPRP` , readout=shrunken log2 fold change) returns -0.132

For this sequence ( `RRIRSRPPRLPRPRPRPASEPRP` ), measured shrunken log2 fold change is -0.00793

The reported value for `RRIRWRPPRLPRPRPRPHWTPRP` in terms of shrunken log2 fold change is -0.158

Reference source for all entries: the supplement of paper PMC9112550
